molecular target: Alkaline phosphatase, germ cell type (Homo sapiens) (UniProt P10696); assay: effect of analogs on PLAP-like activity, SAR follow-up, selectivity assay for mouse IAP activator project, biochemical, human placental-like ALPPL2 isozyme (AID 493139); conditions: purified human placental-like alkaline phosphatase, enzymatic activity
Sequence (P10696 whole entry, looked up): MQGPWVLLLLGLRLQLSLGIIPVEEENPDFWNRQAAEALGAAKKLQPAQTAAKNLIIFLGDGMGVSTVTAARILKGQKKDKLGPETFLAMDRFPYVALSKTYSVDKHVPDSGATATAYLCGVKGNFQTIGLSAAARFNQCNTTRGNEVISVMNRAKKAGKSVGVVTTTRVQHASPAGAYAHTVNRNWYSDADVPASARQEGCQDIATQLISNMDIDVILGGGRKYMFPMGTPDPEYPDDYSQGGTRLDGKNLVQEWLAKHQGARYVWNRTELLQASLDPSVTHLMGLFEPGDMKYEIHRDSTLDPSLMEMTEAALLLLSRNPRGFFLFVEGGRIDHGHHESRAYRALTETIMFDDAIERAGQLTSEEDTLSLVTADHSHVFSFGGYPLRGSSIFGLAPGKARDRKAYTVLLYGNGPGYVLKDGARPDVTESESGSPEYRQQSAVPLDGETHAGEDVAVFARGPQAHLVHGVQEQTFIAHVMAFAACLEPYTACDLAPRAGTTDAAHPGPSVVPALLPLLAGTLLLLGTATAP
Calls of active or inactive are those of the source. How the calls were made is not given here.
Pick one: active, inactive

// known answers, use as guide
COc1cc(C(=O)NN=Cc2ccccn2)cc(OC)c1OC ... active
O=C(N/N=C/C1CC=CCC1)c1cc(O)c(O)c(O)c1 (stereo not drawn) ... inactive
COc1ccc(N2CCN(C(=O)CN3C(=O)/C(=C\c4ccco4)SC3=S)CC2)cc1 ... inactive
COc1cccc(NC(=O)CN(C)S(=O)(=O)c2ccc3[nH]c(=O)oc3c2)c1 ... inactive
COc1ccccc1CNC(=O)CCNS(=O)(=O)c1ccc2[nH]c(=O)oc2c1 ... inactive
N#Cc1c(SCC(=O)Nc2cccc(F)c2)sc2c(O)cc(=O)[nH]c12 ... inactive
CC(C(=O)Nc1ccc(C(=O)O)cc1)N1C(=O)/C(=C\c2ccco2)SC1=S (stereo not drawn) ... active
Cc1ccc(Cl)cc1NC(=O)CSc1sc2c(O)cc(=O)[nH]c2c1C#N ... inactive
COc1ccc(CNC(=O)CSc2sc3c(O)cc(=O)[nH]c3c2C#N)cc1OC ... inactive
O=C(CN1C(=O)/C(=C/c2ccco2)SC1=S)Nc1cccc(C(=O)O)c1 ... inactive

Ask: Which outcome was assigned to O=C(CN1C(=O)/C(=C\c2ccco2)SC1=S)Nc1ccccc1C(=O)O in this test?
Result: inactive

Ask: Which outcome was assigned to S=C(NCCC(c1ccccc1)c1ccccc1)Nc1ccc(Cl)cc1Cl in this test?
Result: active

Ask: Which outcome was assigned to O=C(CN1C(=O)/C(=C\c2ccco2)SC1=S)Nc1ccc(C(=O)O)cc1 in this test?
Result: inactive

Taken from PubChem BioAssay AID493139.
